Settings: in dichloromethane, 283.15 K
Endpoint Label: solubility (mole fraction)
No unit in the answer, please; the number alone is enough.

Input line: Which solubility (mole fraction) is listed for `Oc1ccc(/C=C/c2cc(O)cc(O)c2)cc1` ?
Output line: 1.23e-06

###

Details: in ethanol, 283.15 K
Endpoint Label: solubility (mole fraction)
No unit in the answer, please; the number alone is enough.

Input line: Which solubility (mole fraction) is listed for `Oc1ccc(/C=C/c2cc(O)cc(O)c2)cc1` ?
Output line: 0.0212

###

Conditions: in methanol, 288.15 K
Endpoint Label: solubility (mole fraction)
No unit in the answer, please; the number alone is enough.

Input line: Which solubility (mole fraction) is listed for `Oc1ccc(/C=C/c2cc(O)cc(O)c2)cc1` ?
Output line: 0.0182

###

Settings: in methanol, 283.15 K
Endpoint Label: solubility (mole fraction)

Input line: Which solubility (mole fraction) is listed for `Oc1ccc(/C=C/c2cc(O)cc(O)c2)cc1` ?
Output line: 0.0174

###

Details: in n-propanol, 293.15 K
Endpoint Label: solubility (mole fraction)
No unit in the answer, please; the number alone is enough.

Input line: Which solubility (mole fraction) is listed for `Oc1ccc(/C=C/c2cc(O)cc(O)c2)cc1` ?
Output line: 0.0156

###

Settings: in n-butanol, 288.15 K
Endpoint Label: solubility (mole fraction)
No unit in the answer, please; the number alone is enough.

Input line: Which solubility (mole fraction) is listed for `Oc1ccc(/C=C/c2cc(O)cc(O)c2)cc1` ?
Output line: 0.0112

###

Conditions: in methanol, 298.15 K
Endpoint Label: solubility (mole fraction)

Input line: Which solubility (mole fraction) is listed for `Oc1ccc(/C=C/c2cc(O)cc(O)c2)cc1` ?
Output line: 0.0198

###

Conditions: in ethanol, 288.15 K
Endpoint Label: solubility (mole fraction)

Input line: Which solubility (mole fraction) is listed for `Oc1ccc(/C=C/c2cc(O)cc(O)c2)cc1` ?
Output line: 0.0224

###

Details: in ethanol, 303.15 K
Endpoint Label: solubility (mole fraction)
No unit in the answer, please; the number alone is enough.

Input line: Which solubility (mole fraction) is listed for `Oc1ccc(/C=C/c2cc(O)cc(O)c2)cc1` ?
Output line: 0.0261

###

Conditions: in ethanol, 298.15 K
Endpoint Label: solubility (mole fraction)
No unit in the answer, please; the number alone is enough.

Input line: Which solubility (mole fraction) is listed for `Oc1ccc(/C=C/c2cc(O)cc(O)c2)cc1` ?
Output line: 0.0248

###

Conditions: in n-butanol, 283.15 K
Endpoint Label: solubility (mole fraction)
No unit in the answer, please; the number alone is enough.

Input line: Which solubility (mole fraction) is listed for `Oc1ccc(/C=C/c2cc(O)cc(O)c2)cc1` ?
Output line: 0.0103

###

Details: in n-butanol, 303.15 K
Endpoint Label: solubility (mole fraction)
No unit in the answer, please; the number alone is enough.

Input line: Which solubility (mole fraction) is listed for `Oc1ccc(/C=C/c2cc(O)cc(O)c2)cc1` ?
Output line: 0.014
